Origin of measurements: patent US20200109188A1

Measured Neutralization IC50, H3-VC11, listed per entry.
Target: HA of A/Victoria/361/11 (H3N2) virus (influenza A virus)
Assay: cell-based or functional assay
QUANTITY_MEASURED: Neutralization IC50, H3-VC11 (µg/mL)

| BINDER | QUANTITY_MEASURED | NUMERIC_RESULT |
| --- | --- | --- |
| Antibody 12 (antibody, V domains shown) VH: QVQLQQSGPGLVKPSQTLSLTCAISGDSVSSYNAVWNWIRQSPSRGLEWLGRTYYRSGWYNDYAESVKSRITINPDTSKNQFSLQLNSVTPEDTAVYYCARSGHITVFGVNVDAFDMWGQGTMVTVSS VL: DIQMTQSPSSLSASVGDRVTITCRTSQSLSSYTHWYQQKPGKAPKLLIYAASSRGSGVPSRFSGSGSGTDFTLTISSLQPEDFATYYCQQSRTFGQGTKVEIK | Neutralization IC50, H3-VC11 | 0.83 |
| Antibody 11 (antibody, V domains shown) VH: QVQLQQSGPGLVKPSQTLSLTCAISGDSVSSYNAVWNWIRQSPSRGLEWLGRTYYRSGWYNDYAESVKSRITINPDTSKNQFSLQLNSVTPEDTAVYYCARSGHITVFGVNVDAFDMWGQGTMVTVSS VL: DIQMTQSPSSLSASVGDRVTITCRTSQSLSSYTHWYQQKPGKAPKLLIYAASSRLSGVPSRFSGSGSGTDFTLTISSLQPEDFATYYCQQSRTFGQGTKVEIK | Neutralization IC50, H3-VC11 | 0.85 |
| Antibody 14 (antibody, V domains shown) VH: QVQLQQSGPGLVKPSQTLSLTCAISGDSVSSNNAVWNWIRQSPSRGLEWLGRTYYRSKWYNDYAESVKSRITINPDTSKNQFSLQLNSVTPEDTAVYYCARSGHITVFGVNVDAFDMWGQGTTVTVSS VL: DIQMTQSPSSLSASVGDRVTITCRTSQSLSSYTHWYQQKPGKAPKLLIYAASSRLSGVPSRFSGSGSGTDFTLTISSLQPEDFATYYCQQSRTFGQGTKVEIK | Neutralization IC50, H3-VC11 | 1.15 |
